System: DPP4 (Homo sapiens, UniProt P27487)
Sequence (P27487 whole entry): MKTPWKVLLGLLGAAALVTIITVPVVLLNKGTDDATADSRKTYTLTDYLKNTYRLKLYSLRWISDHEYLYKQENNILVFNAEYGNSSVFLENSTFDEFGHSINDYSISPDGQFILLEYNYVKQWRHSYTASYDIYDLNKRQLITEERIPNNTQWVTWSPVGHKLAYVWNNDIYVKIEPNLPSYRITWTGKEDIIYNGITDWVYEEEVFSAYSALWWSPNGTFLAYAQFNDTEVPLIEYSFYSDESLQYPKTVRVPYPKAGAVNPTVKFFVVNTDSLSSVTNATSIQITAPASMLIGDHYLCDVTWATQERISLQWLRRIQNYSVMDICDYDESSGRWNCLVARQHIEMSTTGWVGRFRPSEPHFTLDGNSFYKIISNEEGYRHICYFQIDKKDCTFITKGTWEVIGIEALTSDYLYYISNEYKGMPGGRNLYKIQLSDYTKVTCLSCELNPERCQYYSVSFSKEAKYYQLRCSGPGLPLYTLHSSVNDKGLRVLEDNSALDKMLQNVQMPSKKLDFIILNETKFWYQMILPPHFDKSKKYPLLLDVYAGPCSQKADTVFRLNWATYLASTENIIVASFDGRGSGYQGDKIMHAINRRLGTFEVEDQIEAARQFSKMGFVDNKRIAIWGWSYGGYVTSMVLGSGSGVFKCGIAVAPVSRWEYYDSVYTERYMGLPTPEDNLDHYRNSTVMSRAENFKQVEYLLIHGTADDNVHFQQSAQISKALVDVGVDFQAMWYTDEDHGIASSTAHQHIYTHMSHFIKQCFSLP
Protocol Text: Inhibition kinetic analysis of DPP4 (Lineweaver–Burk plot)
Assay type: biochemical
Condition Details: from Lineweaver–Burk plot, substrate 17–80 μM
Measured Parameter: Inhibition Mode

Example entries and their recorded answers appear below.
- Compound: "O=C1CSC(c2cccc(Cl)c2Cl)N1c1nc2ccc(OC(F)(F)F)cc2s1 (stereo not drawn) [h4]"
  Inhibition Mode: "competitive"
- Compound: "O=C1CSC(c2ccc(Cl)cc2)N1c1nc2ccc(OC(F)(F)F)cc2s1 (stereo not drawn) [h8]"
  Inhibition Mode: "mixed"
- Compound: "Cc1cc(C23CC4CC(CC(C4)C2)C3)cc2sc(N3C(=O)CSC3c3c(F)cccc3F)nc12 (stereo not drawn) [n2]"
  Inhibition Mode: "competitive"
- Compound: "COc1ccc(C2SCC(=O)N2c2nc3ccc(Cl)cc3s2)cc1 (stereo not drawn) [c4]"
  Inhibition Mode: "uncompetitive"
- Compound: "O=C1CSC(c2ccc([N+](=O)[O-])cc2)N1c1nc2ccc(Cl)cc2s1 (stereo not drawn) [c2]"
  Inhibition Mode: "competitive"

Hello, please tell me recorded Inhibition Mode for this one: COc1ccc(C2SCC(=O)N2c2nc3ccc(OC(F)(F)F)cc3s2)cc1 (stereo not drawn) [h9] mixed

Hello, please tell me recorded Inhibition Mode for this one: O=C1CSC(c2c(F)cccc2Cl)N1c1nc2ccc(C34CC5CC(CC(C5)C3)C4)cc2s1 (stereo not drawn) [m2] uncompetitive

Hello, please tell me recorded Inhibition Mode for this one: O=C1CSC(c2c(F)cccc2Cl)N1c1nc2ccc(OC(F)(F)F)cc2s1 (stereo not drawn) [h3] competitive

====

System: DPP4 (Homo sapiens)
Protocol Text: In vitro DPP4 inhibition assay, fluorometric, H-Gly-Pro-amidomethyl coumarin substrate
Condition Details: read-out: % Inhibition, 50 μΜ Substrate
Tag: T if measured inhibition at 0.08 µM is not below 60%, F if it is.

Please indicate if the recorded inhibition at 0.08 µM for O=C1CSC(c2ccc(Cl)cc2Cl)N1c1nc2ccc(OC(F)(F)F)cc2s1 (stereo not drawn) meets or exceeds 60%. F

Please indicate if the recorded inhibition at 0.08 µM for O=C1CSC(c2ccc([N+](=O)[O-])cc2)N1c1nc2ccc(OC(F)(F)F)cc2s1 (stereo not drawn) meets or exceeds 60%. T

Please indicate if the recorded inhibition at 0.08 µM for O=C1CSC(c2c(F)cccc2Cl)N1c1nc2ccc(C34CC5CC(CC(C5)C3)C4)cc2s1 (stereo not drawn) meets or exceeds 60%. F

Please indicate if the recorded inhibition at 0.08 µM for O=C1CSC(c2c(F)cccc2Cl)N1c1nc2ccc(OC(F)(F)F)cc2s1 (stereo not drawn) meets or exceeds 60%. T

Please indicate if the recorded inhibition at 0.08 µM for Cc1cc(C23CC4CC(CC(C4)C2)C3)cc2sc(N3C(=O)CSC3c3c(F)cccc3F)nc12 (stereo not drawn) meets or exceeds 60%. T

Please indicate if the recorded inhibition at 0.08 µM for O=C1CSC(c2c(Cl)cccc2Cl)N1c1nc2ccc(OC(F)(F)F)cc2s1 (stereo not drawn) meets or exceeds 60%. T

Please indicate if the recorded inhibition at 0.08 µM for COc1ccc(C2SCC(=O)N2c2nc3ccc(OC(F)(F)F)cc3s2)cc1 (stereo not drawn) meets or exceeds 60%. F

Please indicate if the recorded inhibition at 0.08 µM for Cc1cc(C23CC4CC(CC(C4)C2)C3)cc2sc(N3C(=O)CSC3c3c(Cl)cccc3Cl)nc12 (stereo not drawn) meets or exceeds 60%. F

Please indicate if the recorded inhibition at 0.08 µM for O=C1CSC(c2ccc(O)cc2)N1c1nc2ccc(OC(F)(F)F)cc2s1 (stereo not drawn) meets or exceeds 60%. F
